- target of assay: T1, O7-bS
- T1 chain: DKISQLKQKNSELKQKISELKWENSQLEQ
- assay text: two-hybrid library CCNG1;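 note: natural log of median RNA to DNA barcode read ratio; higher means stronger binding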
measured attribute: interaction score
Please respond with just the number, no unit label.

{"binder": "DENSQLEQEISELEQKNSELKWEISQLEQ [O5-bS]", "interaction score": -1.98}
{"binder": "DKISQLKQKNSELKQEISELEWKNSQLKQ [O16-bS]", "interaction score": -0.709}
{"binder": "DKISQLKQEISELEQKNSELKWKNSQLKQ [O4-bS]", "interaction score": -0.221}
{"binder": "DKISQLKQKNSELKQKISELKWENSQLEQ [O7-bS]", "interaction score": -1.01}
{"binder": "DKNSQLKQKISELKQENSELEWKISQLKQ [O6-bS]", "interaction score": -0.489}

The binder listed as DKNSQLKQKISELKQKNSELKWEISQLEQ [O13-bS] shows interaction score equal to -1.16

The binder listed as DKNSQLKQENSELEQEISELEWEISQLEQ [O1-bS] shows interaction score equal to -1.5

Data credit: paper PMC10397247
